Just for reference, patent US9738655B2 is where these values come from.

- target.entity: purified human plasma kallikrein (Homo sapiens (Human), UniProt P03952)
- Sequence (P03952 391-638): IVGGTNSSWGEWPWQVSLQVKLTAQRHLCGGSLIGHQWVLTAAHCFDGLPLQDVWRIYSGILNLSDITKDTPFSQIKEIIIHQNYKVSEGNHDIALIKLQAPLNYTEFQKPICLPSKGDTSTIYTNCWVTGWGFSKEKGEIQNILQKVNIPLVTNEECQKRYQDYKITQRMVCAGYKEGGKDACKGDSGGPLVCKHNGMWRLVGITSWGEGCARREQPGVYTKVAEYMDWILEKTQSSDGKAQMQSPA
- Sequence (P03952 20-390 partner): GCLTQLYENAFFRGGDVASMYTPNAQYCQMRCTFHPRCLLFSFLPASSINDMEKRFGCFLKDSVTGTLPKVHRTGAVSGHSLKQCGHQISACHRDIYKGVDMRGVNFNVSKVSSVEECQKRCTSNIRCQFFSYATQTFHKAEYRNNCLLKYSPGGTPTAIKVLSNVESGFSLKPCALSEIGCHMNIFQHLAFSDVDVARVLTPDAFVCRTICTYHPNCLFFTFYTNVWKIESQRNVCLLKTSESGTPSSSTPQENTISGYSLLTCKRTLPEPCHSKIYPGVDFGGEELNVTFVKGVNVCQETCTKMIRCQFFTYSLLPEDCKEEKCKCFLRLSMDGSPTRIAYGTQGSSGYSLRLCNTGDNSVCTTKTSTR
- assay.method.text: Plasma kallikrein enzyme inhibition assay (chromogenic substrate S-2302)
- Type: biochemical
- condition.description: measured at 25° C. (no asterisk)
Where a name gives a salt, the structure may show the parent alone.
observable: Ki (nM)

Some compounds with recorded Ki:
[
  {
    "compound": "O=C(O)c1ccc(NC(=O)[C@H]2c3cccc(N4CCOCC4)c3CCN2C(=O)c2cnn(-c3cccc(Cl)c3F)c2)cc1 [Example 88, TFA salt]",
    "Ki / nM": 2080
  },
  {
    "compound": "O=C(O)c1ccc(NC(=O)C2c3cccc(-c4cn[nH]c4)c3CCN2C(=O)c2cn(-c3cccc(Cl)c3F)nn2)cc1 (stereo not drawn)",
    "Ki / nM": 7.68
  },
  {
    "compound": "COC1CCN(c2cccc3c2CCN(C(=O)c2cnn(-c4cccc(Cl)c4F)c2N)[C@H]3C(=O)Nc2ccc(C(=O)O)cc2)CC1 [Example 286, TFA salt]",
    "Ki / nM": 3290
  },
  {
    "compound": "COc1ccc(NC(=O)C2c3cccc(N4CCC(N(C)C)CC4)c3CCN2C(=O)c2cnn(-c3cccc(Cl)c3F)c2)cc1 (stereo not drawn) [Example 97, TFA salt]",
    "Ki / nM": 21.7
  },
  {
    "compound": "O=C(O)c1ccc(NC(=O)C2c3cccc(Cl)c3CCN2C(=O)c2cn(-c3cccc(Cl)c3F)nn2)cc1 (stereo not drawn)",
    "Ki / nM": 41.5
  }
]

1 = CN1CCN(c2cccc3c2CCN(C(=O)c2cn(-c4cccc(Cl)c4F)nn2)[C@@H]3C(=O)Nc2ccc(C(=O)O)cc2)CC1=O [Example 287, TFA salt]
2 = O=C(O)c1ccc(NC(=O)C2c3cccc(N4CCOCC4)c3CCN2C(=O)[C@H]2CC(c3cccc(Cl)c3F)=NO2)cc1 (stereo in doubt) [Example 296, TFA salt]
Between these two entries, 1 and 2 , state which has the higher Ki. // return label of chosen record
2
(2: 186 nM, 1: 1.82 nM)

1 = O=C(O)c1ccc(NC(=O)C2c3cccc(N4CCC(N5CCCC5=O)CC4)c3CCN2C(=O)c2cnn(-c3cccc(Cl)c3F)c2)cc1 (stereo not drawn) [Example 74, TFA salt]
2 = CN1CCC2(CCN(c3cccc4c3CCN(C(=O)c3cn(-c5cccc(Cl)c5F)nn3)C4C(=O)Nc3ccc(C(=O)O)cc3)CC2)C1=O (stereo not drawn) [Example 106, TFA salt]
Select one: 1 or 2 . Criterion: greater recorded Ki. Which one? Tell me its label.
1
